Measured values drawn from paper PMC4351682 for this set.

# Test system: CVB3 (strain Nancy)
# assay.info: CPE inhibition assay for anti-CVBs, CVB3 in Vero cells
# Type: cell-based, coxsackievirus B3
# protocol.conditions: Enterovirus B, CVB3, 100 TCID50, Vero cells
metric.name: IC50 (µM)
Provide the reading as a plain figure in µM.

QUERY: Request body: readout IC50, system CVB3 (strain Nancy), query COc1ccc(-c2coc3cc(O)ccc3c2=O)cc1 . Return the value.
RESULT: 2.57

* * *

# Tested on: EV71 SHZH98 strain
# assay.info: CPE inhibition assay for anti-EV71 in SK-N-SH cells
# Format: cell-based, enterovirus 71
# protocol.conditions: Enterovirus A, 48 h
Give measured IC50 for each item. Keep answers brief.
Give the number; nM is assumed, so skip it.

QUERY: Request: IC50, test system EV71 SHZH98 strain, entry CCOC(=O)c1ccc(OCCC2CCN(c3ccc(C)nn3)CC2)cc1 [Pirodavir, reference compound]
RESULT: 230

QUERY: Observed IC50 on EV71 SHZH98 strain for COc1ccc(-c2coc3cc(O)ccc3c2=O)cc1 , please.
RESULT: 3980
